# test_system: Cellular tumor antigen p53 (Homo sapiens) (UniProt P04637)
# Sequence (P04637 whole entry, looked up): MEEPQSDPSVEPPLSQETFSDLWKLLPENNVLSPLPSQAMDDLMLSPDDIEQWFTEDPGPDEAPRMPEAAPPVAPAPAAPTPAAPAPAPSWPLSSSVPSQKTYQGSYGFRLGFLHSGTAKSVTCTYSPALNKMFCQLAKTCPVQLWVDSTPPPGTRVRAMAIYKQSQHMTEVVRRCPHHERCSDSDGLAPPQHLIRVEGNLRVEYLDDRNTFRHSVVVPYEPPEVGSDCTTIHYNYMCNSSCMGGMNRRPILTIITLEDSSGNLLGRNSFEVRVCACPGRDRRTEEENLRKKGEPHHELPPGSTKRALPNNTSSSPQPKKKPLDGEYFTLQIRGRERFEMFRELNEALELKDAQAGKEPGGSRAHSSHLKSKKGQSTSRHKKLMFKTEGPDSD
# experiment_summary: ATG_p53_CIS: Attagene CIS-FACTORIAL HepG2 Assay for human p53 Transcription Factor (AID 2282994)
# study_conditions: HepG2 p53 cis-element reporter, Attagene mRNA; actives raise or lower the signal
The source made the active and inactive calls. The calls were made as follows: active = hit-call score of the fitted dose curve at least 0.9, where 1 is the maximum; inactive = score below 0.9.
Possible outcomes: True for active, False for inactive

molecule | assigned_category
CC(=O)CCc1ccccc1 | False
O=C(O)c1ccccc1C(=O)O | False
COC(=O)c1ccccc1 | False
N#CCN(CC#N)CCN(CC#N)CC#N | False
CCCCCCCCCC/C=C/C1CC(=O)OC1=O (stereo unspecified) | False
CC(C)n1c(/C=C/[C@@H](O)C[C@@H](O)CC(=O)O)c(-c2ccc(F)cc2)c2ccccc21 | True

###

# test_system: Cellular tumor antigen p53 (Homo sapiens)
# experiment_summary: TOX21_p53_BLA_p4_ratio: Tox21 HCT-116 p53 Agonism Beta-lactamase Assay, Ratio, Phase 4 (AID 2283601)
Records with an inconclusive call do not appear. Calls of active or inactive are those of the source. The calls were made as follows: active = hit-call score of the fitted dose curve at least 0.9, where 1 is the maximum; inconclusive = response in the unintended direction; inactive = score below 0.9.
Possible outcomes: yes (1) for active, no (0) for inactive

molecule | assigned_category
CCCc1c2oc(C(=O)O)cc(=O)c2cc2c(=O)cc(C(=O)O)n(CC)c12 | no (0)
CCCCCCCCCC#N | no (0)
COc1ccc2cc([C@H](C)C(=O)O)ccc2c1 | no (0)
CC[N+](C)(C)Cc1ccccc1Br | no (0)
CCCCCCCCOCCCN | no (0)
COc1ncnc(NS(=O)(=O)c2ccc(N)cc2)c1OC | no (0)
CCCCCCCCOCCC#N | no (0)
COc1cc2nc(N3CCN(C(=O)C4CCCO4)CC3)nc(N)c2cc1OC (stereo unspecified) | no (0)
Cc1ncc(C[n+]2csc(CCOP(=O)(O)O)c2C)c(N)n1 | no (0)
CC1(C)C(O)C(C)(C)C1O (stereo unspecified) | no (0)
CCCCN=C(N)N=C(N)N | no (0)
O=c1[nH]c(=O)n([C@H]2C[C@H](O)[C@@H](CO)O2)cc1/C=C/Br | no (0)
CNC(=O)CN(CCN(CCN(CC(=O)[O-])CC(=O)NC)CC(=O)[O-])CC(=O)[O-].O.[Gd+3] | no (0)
NC(=O)c1ccncc1 | no (0)
CC(C)(C)CC(C)(C)c1ccc(OCCO)cc1 | no (0)
Oc1ccc2c(c1)OCO2 | no (0)
Nc1ccccc1S(=O)(=O)c1ccccc1 | no (0)
CCCOc1ccccc1-c1nc2n[nH]nc2c(=O)[nH]1 | no (0)
COc1cc(C(=O)NS(=O)(=O)c2ccccc2C)ccc1Cc1cn(C)c2ccc(NC(=O)OC3CCCC3)cc12 | yes (1)
C=CCSCC1Nc2cc(Cl)c(S(N)(=O)=O)cc2S(=O)(=O)N1 (stereo unspecified) | no (0)
CC(C)COCC(CN(Cc1ccccc1)c1ccccc1)N1CCCC1 (stereo unspecified) | no (0)
CCOC(=O)COc1ccc2c(=O)cc(-c3ccccc3)oc2c1 | no (0)
C=CC1=C(C)C2=CC3=NC(=C(CC(=O)[O-])C4=NC(=C(C)C4=C([O-])[O-])C=c4[n-]c(c(C)c4CC)=CC1=N2)[C@@H](CCC(=O)[O-])[C@@H]3C.[Cu+2].[Na+].[Na+].[Na+] | no (0)
C=C1/C(=C\C=C2/CCC[C@]3(C)[C@@H]([C@H](C)CCCC(C)(C)O)CC[C@@H]23)C[C@@H](O)C[C@@H]1O | yes (1)
O=C1c2ccccc2C(=O)c2cc(O)ccc21 | yes (1)
CC1Cc2ccccc2N1NC(=O)c1ccc(Cl)c(S(N)(=O)=O)c1 (stereo unspecified) | no (0)
CC(C)[N+]1(C)[C@@H]2CC[C@H]1CC(OC(=O)C(CO)c1ccccc1)C2 (stereo partly specified) | no (0)
O=C1NC(=O)[C@@H]2CC=CC[C@H]12 | no (0)
CC(Cl)=CCCl | no (0)
Cc1ncc(C[n+]2csc(CCOP(=O)(O)OP(=O)(O)O)c2C)c(N)n1 | no (0)
COCCCN | no (0)
COc1ccc(-c2ccc3cc(C(=O)O)ccc3c2)cc1C12CC3CC(CC(C3)C1)C2 | no (0)
O=C(CC(=O)C(F)(F)F)c1ccccc1 | no (0)
CC(=O)CCc1ccccc1 | no (0)
OCC(S)CS (stereo unspecified) | no (0)
C/C(=C(\CCOC(=O)c1ccccc1)SS/C(CCOC(=O)c1ccccc1)=C(/C)N(C=O)Cc1cnc(C)nc1N)N(C=O)Cc1cnc(C)nc1N | no (0)
Cc1ccc(N=Nc2c(O)c(C(=O)O)cc3ccccc23)c(S(=O)(=O)O)c1 | no (0)
N#Cc1c(N(CC(=O)O)CC(=O)O)sc(C(=O)O)c1CC(=O)O | no (0)
NC(=O)c1ncn([C@@H]2O[C@H](CO)[C@@H](O)[C@H]2O)n1 | yes (1)
O=NN(CCCl)C(=O)NCCCl | no (0)
Nc1ccc(S(=O)(=O)Nc2cnc3ccccc3n2)cc1 | no (0)

###

# test_system: Nuclear receptor subfamily 1 group I member 2 (Homo sapiens)
# experiment_summary: ATG_PXR_TRANS: Attagene TRANS-FACTORIAL HepG2 Assay for human Pregnane X Receptor (PXR) (AID 2283008)
Results filed as inconclusive are left out. The source made the active and inactive calls. How the source made its calls: active means hit-call score of the fitted dose curve at least 0.9, where 1 is the maximum; inconclusive means response in the unintended direction; inactive means score below 0.9.
Possible outcomes: active, inactive

compound | assigned_category
CC[N+](CC)(CC(=O)Nc1c(C)cccc1C)Cc1ccccc1 (tested in a mixture with another compound) | inactive
C[C@H]1C[C@H]2[C@@H]3CCC4=CC(=O)C=C[C@]4(C)[C@@]3(F)[C@@H](O)C[C@]2(C)[C@@]1(O)C(=O)CO | active
CC(C)n1c(/C=C/[C@@H](O)C[C@@H](O)CC(=O)O)c(-c2ccc(F)cc2)c2ccccc21 | inactive
O=C(c1ccccc1)c1ccccc1O | active
CCCCCCC1CCCC(=O)O1 (configuration not stated) | inactive
c1cc[c]([Bi]([c]2ccccc2)[c]2ccccc2)cc1 | active
O=S(=O)(O)c1cccc2ccccc12 | inactive

###

# experiment_summary: TOX21_p53_BLA_p5_viability: Viability Assessment in the Tox21 HCT-116 p53 Agonism Beta-lactamase Assay, Phase 5 (AID 2283600)
Records with an inconclusive call do not appear. Active and inactive are the calls of the source. The calls were made as follows: active = hit-call score of the fitted dose curve at least 0.9, where 1 is the maximum; inconclusive = response in the unintended direction; inactive = score below 0.9.
Possible outcomes: class 1 = active, class 0 = inactive

compound | assigned_category
CCCCOCCOCCOCCCC | class 0
Nc1c2ccccc2nc2ccccc12 | class 0
Cc1[nH]cnc1CN1CCc2c(c3ccccc3n2C)C1=O | class 0
COCCOC(=O)C1=C(C)NC(C)=C(C(=O)OC/C=C/c2ccccc2)C1c1cccc([N+](=O)[O-])c1 (centres undefined) | class 0
O=C1OCCN1N=Cc1ccc([N+](=O)[O-])o1 | class 0
CCN(CC)CCOc1ccc(Cc2ccccc2)cc1 | class 0
CSc1ccc(C(=O)c2[nH]c(=O)[nH]c2C)cc1 | class 0
CCCCOC(=O)c1ccc(N)cc1 | class 0
Cc1ccc(S(=O)(=O)NC(=O)NC2CCCCCCC2)cc1 | class 0
CCCCCCCCOc1ccc(C(=O)O)cc1 | class 0
CCCCCCCCCCCCCCCCCCCl | class 0
C=C1/C(=C\C=C2/CCC[C@]3(C)[C@@H]([C@H](C)CCCC(C)(C)O)CC[C@@H]23)C[C@@H](O)C[C@@H]1O | class 1
O=P(O)(O)OP(=O)(O)O | class 0
CCOC(=O)n1ccn(C)c1=S | class 0

###

# test_system: Cellular tumor antigen p53 (Homo sapiens) (UniProt P04637)
# experiment_summary: TOX21_p53_BLA_p4_ratio: Tox21 HCT-116 p53 Agonism Beta-lactamase Assay, Ratio, Phase 4 (AID 2283601)
Results filed as inconclusive are left out. Active and inactive are the calls of the source. How the source made its calls: active means hit-call score of the fitted dose curve at least 0.9, where 1 is the maximum; inconclusive means response in the unintended direction; inactive means score below 0.9. Where a SMILES comes first, the peptide text is derived from it. Bridges are numbered along the chain shown (N, C = ends). [ ]: non-standard residue; d: D form. Orn = NCCC[C@H](N)C(=O)O; Mpa = O=C(O)CCS
Possible outcomes: active, inactive

compound | assigned_category
COc1cc(C)c(/C=C/C(C)=C/C=C/C(C)=C/C(=O)O)c(C)c1C | inactive
C=C1CC[C@H](O)C/C1=C/C=C1\CCC[C@]2(C)[C@@H]([C@H](C)CCCC(C)(C)O)CC[C@@H]12 | active
NC(Cc1ccc(Cl)cc1)C(=O)O (configuration not stated) | inactive
CCCCCCCCCCOc1cc2c(=O)c(C(=O)OCC)c[nH]c2cc1OCC | inactive
OCCN(CCO)c1cccc(Cl)c1 | inactive
CO[C@@H]1[C@@H](OC)[C@H](C)[C@@](O)(CC(=O)O)O[C@H]1[C@H](C)[C@H]1O[C@@]2(CC[C@@](C)([C@H]3CC[C@@](C)([C@@H]4O[C@@H]([C@H]5O[C@](C)(O)[C@H](C)C[C@@H]5C)C[C@@H]4OC4C[C@H](OC)[C@@H](OC)[C@H](C)O4)O3)O2)C[C@H](O)[C@H]1C (some centres not stated) | inactive
CCCCCCCCC1CO1 (configuration not stated) | inactive
Cc1cc(C(=O)NCCc2ccc(S(=O)(=O)NC(=O)NN3CCCCCC3)cc2)no1 | inactive
Cc1cc(CC(C)CC(C)(C)C)n(O)c(=O)c1 (configuration not stated) (tested in a mixture with another compound) | active
CCOc1ccc(C[C@H]2NC(=O)CCSSC[C@@H](C(=O)N3CCC[C@H]3C(=O)N[C@@H](CCCN)C(=O)NCC(N)=O)NC(=O)[C@H](CC(N)=O)NC(=O)[C@H]([C@@H](C)O)NC(=O)[C@H]([C@@H](C)CC)NC2=O)cc1 ([Mpa][dY](Et)ITNCP[Orn]G-NH2; disulfide 1-6) | inactive
O=S(=O)(O)CCN1CCN(CCO)CC1 | inactive
C=C(C)C(=O)OCCCC | inactive
ClC1=C(Cl)C1(Cl)Cl | inactive
Nc1nc(Cl)nc2c1ncn2[C@@H]1O[C@H](CO)[C@@H](O)[C@@H]1F | active
CN1CCCN=C1COC(=O)C(O)(c1ccccc1)C1CCCCC1 (configuration not stated) | inactive
CCC(=O)O[C@]1(C(=O)CCl)[C@@H](C)C[C@H]2[C@@H]3C[C@H](F)C4=CC(=O)C=C[C@]4(C)[C@@]3(F)[C@@H](O)C[C@@]21C | inactive
C[C@@H]1CCC2[C@@H](C)[C@@H](O)O[C@@H]3O[C@@]4(C)CC[C@@H]1[C@@]23OO4 (some centres not stated) | inactive
C[C@@H]1C[C@H]2[C@@H]3C[C@H](F)C4=CC(=O)C=C[C@]4(C)[C@@]3(Cl)[C@@H](O)C[C@]2(C)[C@H]1C(=O)COC(=O)C(C)(C)C | inactive
CCN(CC)CCNC(=O)COc1ccc(Cl)cc1 | inactive
ON=C1CCCC1 | inactive
CC(C)CCOC(=O)c1ccc(N(C)C)cc1 | inactive
COS(=O)(=O)C(F)(F)F | inactive
CC(C)(C)C(=O)O | inactive
CC(CO)(CO)CO | inactive
CCCC(CC)CCCCCCCN (configuration not stated) | inactive
COC(=O)CC#N | inactive
Clc1cc(Cl)c(OCC#CI)cc1Cl | inactive
CCCCCCC/C=C/C=O | inactive
CC(C(=O)O)c1ccc2c(c1)[nH]c1ccc(Cl)cc12 (configuration not stated) | inactive
CC1(C)[C@H](C(=O)O)N2C(=O)C[C@H]2S1(=O)=O | inactive
CCN(O)CC | inactive
C[N+]1(C)CCC(OC(=O)C(O)(c2ccccc2)C2CCCC2)C1 (configuration not stated) | inactive
O=C(NOCC1CC1)c1ccc(F)c(F)c1Nc1ccc(I)cc1Cl | active
CC/C=C\C/C=C\C/C=C\C/C=C\C/C=C\C/C=C\CCC(=O)O | inactive
CS(=O)(=O)Nc1ccc([N+](=O)[O-])cc1Oc1ccccc1 | inactive
CCC(CO)(CO)COCC(CC)(CO)CO | inactive
C=CC1CC2C=CC1C2 (configuration not stated) | inactive
Cc1cc(O)c2c(c1)C(=O)c1cccc(O)c1C2=O | inactive
COc1c2occc2cc2ccc(=O)oc12 | inactive
Nc1nnc(-c2ccc([N+](=O)[O-])o2)o1 | active
CN(C)CCN(Cc1cccs1)c1ccccn1 | inactive
CC(=O)O[C@@H]1C(=O)O[C@@H]2[C@H]1OC(=O)[C@@H]2OC(C)=O | inactive
